system: SR leukemia; experiment: NCI tumour cell line growth inhibition, 48 h

[
  {
    "compound": "O=C1c2ccccc2C(=O)N1n1c(Cc2ccc(Cl)cc2)n[nH]c1=O",
    "TGI": "> 100 µM"
  },
  {
    "compound": "Cc1ccccc1C1=C(c2cn(C)c3ccccc23)C(=O)NC1=O",
    "TGI": "> 25 µM"
  },
  {
    "compound": "COC(=O)CN(CC(=O)NCCCBr)C1CCCCC1N(CC(=O)OC)CC(=O)OC (stereo not drawn)",
    "TGI": "> 100 µM"
  }
]

---

system: OVCAR-3 ovarian; test: NCI tumour cell line growth inhibition, 48 h
Measured TGI of individual entries
measured.quantity: TGI

[
  {
    "compound": "O=C(C=Nc1ccccc1C(=O)[O-])c1cccs1.O=C(C=Nc1ccccc1C(=O)[O-])c1cccs1.[Ni+2]",
    "readout.value": "> 100 µM"
  },
  {
    "compound": "COc1cc(CC(C)=O)cc(OC)c1",
    "readout.value": "> 100 µM"
  },
  {
    "compound": "O=C(NC(=Nc1ccccc1)SCSC(=Nc1ccccc1)NC(=O)c1ccco1)c1ccco1",
    "readout.value": "> 100 µM"
  },
  {
    "compound": "OCc1ccc(-c2csc(-c3ccc(CO)o3)c2)o1",
    "readout.value": "> 100 µM"
  },
  {
    "compound": "COC(=O)c1cc(NC(=O)c2cc(NC(=O)c3cc([N+](=O)[O-])n(C)c3)cn2C)cn1C",
    "readout.value": "> 100 µM"
  },
  {
    "compound": "CC(C)NC(=O)OCc1c(COC(=O)NC(C)C)c(-c2ccc[n+](COC(=O)Cc3ccccc3)c2)n2c1CCC2",
    "readout.value": "> 100 µM"
  },
  {
    "compound": "CNS(=O)(=O)OCC1OC(n2cnc3cncnc32)C(O)C1O (centres undefined)",
    "readout.value": "> 100 µM"
  },
  {
    "compound": "CN1CCN(Cc2ccc(NC(=O)c3cncc(C#Cc4c(N)ncc5ccc(C#N)cc45)c3)cc2C(F)(F)F)CC1",
    "readout.value": "14.3 µM"
  },
  {
    "compound": "Cc1ccc(C)c2c1C(=O)N(c1ccc(F)cc1F)C2=O",
    "readout.value": "> 100 µM"
  },
  {
    "compound": "CN1CCN(C(=O)CCC(=O)Nc2cc3c(c4ccccc24)-c2ccc4ccccc4c2C3)CC1",
    "readout.value": "3.22 µM"
  },
  {
    "compound": "COc1cc2c3c(n(CCCN4CCNCC4)c(=O)c2cc1OC)-c1cc2c(cc1C3=O)OCO2",
    "readout.value": "4.35 µM"
  },
  {
    "compound": "CC(=O)OCC1OC(N2C(=O)NC(=O)C3C=C4CCCCC4=CC32)CC1OC(C)=O (centres undefined)",
    "readout.value": "> 100 µM"
  },
  {
    "compound": "O=C(CCBr)N1CCN(C(=O)CCBr)CC1",
    "readout.value": "218 µM"
  },
  {
    "compound": "O=C(CCC(=O)Nc1ccc(Cl)c(Cl)c1)CC(=O)c1ccc2ccccc2c1",
    "readout.value": "> 100 µM"
  }
]

---

system: 786-0 renal; experiment: NCI tumour cell line growth inhibition, 48 h

[
  {
    "molecule": "O=[N+]([O-])c1ccc(/C=C/c2nc3ccc(Cl)cc3[nH]2)cc1",
    "TGI": "43.3 µM"
  },
  {
    "molecule": "COC(=O)C1=COC2OC3C(C(C)O)C(=O)OC34C=CC1C24 (configuration not stated)",
    "TGI": "> 100 µM"
  },
  {
    "molecule": "CC1CCC2C(C)C(=O)OC3OC4(C)CCC1C32OO4 (configuration not stated)",
    "TGI": "> 100 µM"
  },
  {
    "molecule": "CCc1cc(C)cc2[n+]1CC=C2",
    "TGI": "> 100 µM"
  },
  {
    "molecule": "Cc1ccc(-c2nc3nc(-c4ccc(F)cc4)nc(N4CCNCC4)c3o2)cc1",
    "TGI": "3.34 µM"
  },
  {
    "molecule": "CCCCCCCCCCCCCC[n+]1ccccc1",
    "TGI": "2.42 µM"
  },
  {
    "molecule": "[O-]/N=[N+](/[O-])C1CCCCC1=[N+]1CCOCC1 (configuration not stated)",
    "TGI": "> 100 µM"
  }
]

---

Measured TGI of individual entries
tested on: RPMI-8226 leukemia; test: NCI tumour cell line growth inhibition, 48 h

[
  {
    "compound": "CCc1ccccc1NC(=O)C(=O)C(C#N)c1ccccc1Cl (stereo not drawn)",
    "TGI": "> 100 µM"
  },
  {
    "compound": "COC(=O)c1cc(NC(=O)c2cc(NC(=O)c3cc([N+](=O)[O-])n(C)c3)cn2C)cn1C",
    "TGI": "> 100 µM"
  },
  {
    "compound": "N#CCCN(CCC#N)c1ccc(/C=C(/NC(=O)c2cc([N+](=O)[O-])ccc2Cl)C(=O)NN)cc1",
    "TGI": "> 100 µM"
  }
]

---

system: U251 CNS; experiment: NCI tumour cell line growth inhibition, 48 h

[
  {
    "compound": "COC(=O)C1CSC(c2csc(CCN)n2)=N1 (stereo unspecified)",
    "target.entity": "U251 CNS",
    "TGI": "> 100 µM"
  },
  {
    "compound": "Cc1ccccc1C1=C(c2cn(C)c3ccccc23)C(=O)NC1=O",
    "target.entity": "U251 CNS",
    "TGI": "> 25 µM"
  },
  {
    "compound": "O=C(NC(=Nc1ccccc1)SCSC(=Nc1ccccc1)NC(=O)c1ccco1)c1ccco1",
    "target.entity": "U251 CNS",
    "TGI": "> 100 µM"
  },
  {
    "compound": "CN(C)Cc1c(O)ccc2c1c1c(n2C)C(=O)c2ccccc2C1=O",
    "target.entity": "U251 CNS",
    "TGI": "> 100 µM"
  },
  {
    "compound": "C/C=C1/CN2CCC34c5ccccc5N(C)C23C2CC1C4(C(=O)OC)C(OC(C)=O)O2 (stereo unspecified)",
    "target.entity": "U251 CNS",
    "TGI": "> 100 µM"
  },
  {
    "compound": "Cc1cc2c(c(C(=O)NCC(=O)N[C@@H](C)C(=O)OCc3ccccc3)c1)Oc1c(cc(C)cc1C(=O)NCC(=O)N[C@@H](C)C(=O)OCc1ccccc1)S2",
    "target.entity": "U251 CNS",
    "TGI": "> 100 µM"
  },
  {
    "compound": "CC(C)NC(=O)OCc1c(COC(=O)NC(C)C)c(-c2ccc[n+](COC(=O)Cc3ccccc3)c2)n2c1CCC2",
    "target.entity": "U251 CNS",
    "TGI": "> 100 µM"
  },
  {
    "compound": "COC1OCC(O)C(NC(=O)N(C)N=O)C1O (stereo unspecified)",
    "target.entity": "U251 CNS",
    "TGI": "> 100 µM"
  },
  {
    "compound": "COc1cc(C2S/C(=C/c3ccccc3)C(=O)N2Cc2ccccc2)cc(OC)c1OC (stereo unspecified)",
    "target.entity": "U251 CNS",
    "TGI": "> 100 µM"
  },
  {
    "compound": "Cc1cc2nc3c(C#N)c4c(c(Nc5ccc(F)cc5)n3c2cc1C)CCC4",
    "target.entity": "U251 CNS",
    "TGI": "> 100 µM"
  },
  {
    "compound": "OCc1ccc(-c2csc(-c3ccc(CO)o3)c2)o1",
    "target.entity": "U251 CNS",
    "TGI": "> 100 µM"
  },
  {
    "compound": "COC(=O)c1cc(NC(=O)c2cc(NC(=O)c3cc([N+](=O)[O-])n(C)c3)cn2C)cn1C",
    "target.entity": "U251 CNS",
    "TGI": "> 100 µM"
  },
  {
    "compound": "COC(=O)c1c(O)ccc2c1c1cc3ccccc3cc1n2Cc1cc(OC)cc(OC)c1",
    "target.entity": "U251 CNS",
    "TGI": "> 100 µM"
  },
  {
    "compound": "NC1N=Nc2ccccc21 (stereo unspecified)",
    "target.entity": "U251 CNS",
    "TGI": "> 100 µM"
  },
  {
    "compound": "CC(=O)OCC12CN(C#N)C3C4COC(CC41)C1(C(=O)N(C)c4ccccc41)C32 (stereo unspecified)",
    "target.entity": "U251 CNS",
    "TGI": "> 100 µM"
  },
  {
    "compound": "N#Cc1c(N)oc(-c2ccc([N+](=O)[O-])cc2)c1C#N",
    "target.entity": "U251 CNS",
    "TGI": "> 100 µM"
  }
]
